B1: library; a variant is named by its letters at N, in order (parent)
chain: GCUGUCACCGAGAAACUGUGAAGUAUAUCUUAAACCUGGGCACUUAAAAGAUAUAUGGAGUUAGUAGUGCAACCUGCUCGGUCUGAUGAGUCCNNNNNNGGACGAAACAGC

- Variants of: B1
- ASSAY OVERVIEW: normalized RNA/DNA level without ligand (relative to sTRSVctl = 100) (log10 (% of sTRSVctl)); HEK293T; ligand: cyclic di-GMP (c-di-GMP-II aptamer); higher = less ribozyme self-cleavage, higher mRNA level
- EXPERIMENTAL PARAMETERS: reporter: mCherry (pCS4076), ligand present: no
Measured normalized RNA/DNA level without ligand (log10) values are reported for all entries that follow.
ATTRIBUTE MEASURED: normalized RNA/DNA level without ligand (log10)

[[record]]
mutant_designation = "UGCCGC"
test_result = 1.77

[[record]]
mutant_designation = "UUUAUA"
test_result = 1.7

[[record]]
mutant_designation = "ACGCGG"
test_result = 1.69

[[record]]
mutant_designation = "UGUGUU"
test_result = 1.66

[[record]]
mutant_designation = "UUGCAA"
test_result = 1.69

[[record]]
mutant_designation = "AUUCAA"
test_result = 1.58

[[record]]
mutant_designation = "GUAUGA"
test_result = 1.42

[[record]]
mutant_designation = "GGCUCA"
test_result = 1.69

[[record]]
mutant_designation = "AAGAUU"
test_result = 1.63

[[record]]
mutant_designation = "GAAAGC"
test_result = 1.59

[[record]]
mutant_designation = "AAUGAC"
test_result = 1.63

[[record]]
mutant_designation = "AGAUUG"
test_result = 1.58

[[record]]
mutant_designation = "UUUCCC"
test_result = 1.83

[[record]]
mutant_designation = "GAAUCA"
test_result = 1.64

[[record]]
mutant_designation = "CAACCC"
test_result = 1.72

[[record]]
mutant_designation = "GUUCGG"
test_result = 1.71

[[record]]
mutant_designation = "CAAGCG"
test_result = 1.74

[[record]]
mutant_designation = "UCGUAA"
test_result = 1.44

[[record]]
mutant_designation = "AUUAAU"
test_result = 1.67

[[record]]
mutant_designation = "UUACCA"
test_result = 1.75

[[record]]
mutant_designation = "UCGUGG"
test_result = 1.74

[[record]]
mutant_designation = "ACGUGU"
test_result = 1.45

[[record]]
mutant_designation = "GGUUGU"
test_result = 1.7

[[record]]
mutant_designation = "GGAAGC"
test_result = 1.63

[[record]]
mutant_designation = "GCAAUA"
test_result = 1.41

[[record]]
mutant_designation = "UGAGUC"
test_result = 1.73

[[record]]
mutant_designation = "GCCUAA"
test_result = 1.59

[[record]]
mutant_designation = "UAGGUU"
test_result = 1.67

[[record]]
mutant_designation = "GGCUUG"
test_result = 1.64

[[record]]
mutant_designation = "GGACUC"
test_result = 1.76

[[record]]
mutant_designation = "GCGAAC"
test_result = 1.28

[[record]]
mutant_designation = "CUAGGA"
test_result = 1.54

[[record]]
mutant_designation = "GAACAA"
test_result = 1.55

[[record]]
mutant_designation = "UGUGUC"
test_result = 1.76

[[record]]
mutant_designation = "CAAGCU"
test_result = 1.67

[[record]]
mutant_designation = "GAGCAA"
test_result = 1.76

[[record]]
mutant_designation = "CGUCCG"
test_result = 1.82

[[record]]
mutant_designation = "GACCGC"
test_result = 1.81

[[record]]
mutant_designation = "CGCACC"
test_result = 1.7

[[record]]
mutant_designation = "AGAGCA"
test_result = 1.81

[[record]]
mutant_designation = "CGAAUU"
test_result = 1.38

[[record]]
mutant_designation = "AGGGUC"
test_result = 1.71

[[record]]
mutant_designation = "CUUCAA"
test_result = 1.43

[[record]]
mutant_designation = "CGCCCA"
test_result = 1.84

[[record]]
mutant_designation = "CAGCUC"
test_result = 1.78

[[record]]
mutant_designation = "GAUGUA"
test_result = 1.66

[[record]]
mutant_designation = "CGAAAC"
test_result = 1.62

[[record]]
mutant_designation = "AUUGAG"
test_result = 1.57

[[record]]
mutant_designation = "GAGAUA"
test_result = 1.69

[[record]]
mutant_designation = "GUGAUC"
test_result = 1.15

[[record]]
mutant_designation = "CGGGCA"
test_result = 1.81

[[record]]
mutant_designation = "AGUAAC"
test_result = 1.6

[[record]]
mutant_designation = "GGUCAC"
test_result = 1.75

[[record]]
mutant_designation = "UGAUCU"
test_result = 1.72

[[record]]
mutant_designation = "CAAAGU"
test_result = 1.7

[[record]]
mutant_designation = "GUUUCG"
test_result = 1.71

[[record]]
mutant_designation = "GGUCGU"
test_result = 1.66

[[record]]
mutant_designation = "UGAAUA"
test_result = 1.68

[[record]]
mutant_designation = "GAGAGU"
test_result = 1.65

[[record]]
mutant_designation = "UACAGC"
test_result = 1.62

[[record]]
mutant_designation = "UUCUUC"
test_result = 1.78

[[record]]
mutant_designation = "GCGGUA"
test_result = 1.55

[[record]]
mutant_designation = "CGGUAA"
test_result = 1.19

[[record]]
mutant_designation = "UUUCGA"
test_result = 1.82

[[record]]
mutant_designation = "CUUUUA"
test_result = 1.42

[[record]]
mutant_designation = "CGCAUG"
test_result = 1.63

[[record]]
mutant_designation = "AAGGGU"
test_result = 1.53

[[record]]
mutant_designation = "UCCGCG"
test_result = 1.77

[[record]]
mutant_designation = "CGAUUC"
test_result = 1.63

[[record]]
mutant_designation = "UCUCCA"
test_result = 1.76

[[record]]
mutant_designation = "CAUAAA"
test_result = 1.23

[[record]]
mutant_designation = "UACUUC"
test_result = 1.76

[[record]]
mutant_designation = "ACGUCU"
test_result = 1.55

[[record]]
mutant_designation = "AGCGAC"
test_result = 1.65

[[record]]
mutant_designation = "GUGGAA"
test_result = 1.4

[[record]]
mutant_designation = "UGUACC"
test_result = 1.79

[[record]]
mutant_designation = "GUCUGA"
test_result = 1.54

[[record]]
mutant_designation = "GAUCGU"
test_result = 1.65

[[record]]
mutant_designation = "GUCAAA"
test_result = 1.56

[[record]]
mutant_designation = "GCCCGU"
test_result = 1.73

[[record]]
mutant_designation = "UGUCCA"
test_result = 1.8

[[record]]
mutant_designation = "AGUGAA"
test_result = 1.36

[[record]]
mutant_designation = "CGCAGC"
test_result = 1.75

[[record]]
mutant_designation = "UUGAUA"
test_result = 1.49

[[record]]
mutant_designation = "AUUUAG"
test_result = 1.63

[[record]]
mutant_designation = "GACGUA"
test_result = 1.67

[[record]]
mutant_designation = "AGAACG"
test_result = 1.46

[[record]]
mutant_designation = "UUAUGU"
test_result = 1.7

[[record]]
mutant_designation = "CAGGGC"
test_result = 1.73

[[record]]
mutant_designation = "GUACUA"
test_result = 1.61

[[record]]
mutant_designation = "CUCCCA"
test_result = 1.72

